Recorded values, source ChEMBL document CHEMBL1125125.

// CPM lookup, one value per entry
Organism: Mus musculus
Assay: Ability to activate CBA/CaJ Mice spleen cells to proliferate in vitro by measuring new DNA synthesis in a [3H]thymidine incorporation assay at 0.40 mM
Format: functional

Previously resolved entries follow.
> print(dat)
                                   compound  test.result
1  Nc1nc2c(nc(Br)n2[C@@H]2O[C@H](CO)[C@@H](O)[C@H]2O)c(=O)[nH]1        16771
2  Cn1c(=O)n(C2O[C@H](CO)[C@@H](O)[C@H]2O)c2nc(N)nc(O)c21 (stereo not given in full)        94100
3  Nc1nc(O)c2nc(S)n([C@@H]3O[C@H](CO)[C@@H](O)[C@H]3O)c2n1        40690
4  Nc1nc2c(sc(=O)n2[C@@H]2O[C@H](CO)[C@@H](O)[C@H]2O)c(=O)[nH]1 [ISATORIBINE]       107000

Proceeding to the next compound to report its CPM.
Give the reported value of CPM for this record: Nc1nc(O)c2sc(=S)n(C3O[C@H](CO)[C@@H](O)[C@H]3O)c2n1 (stereo not given in full)
53493
